koff overview
- target: T1, wild type human CD47 (Acro Biosystems, cat. no. CD7-H5227) (human, UniProt Q08722 19-139)
- T1 construct: Bought protein used as SPR analyte; also called Human CD47 wt; wild-type CD47
- T1 sequence (Q08722 19-139 limits assumed): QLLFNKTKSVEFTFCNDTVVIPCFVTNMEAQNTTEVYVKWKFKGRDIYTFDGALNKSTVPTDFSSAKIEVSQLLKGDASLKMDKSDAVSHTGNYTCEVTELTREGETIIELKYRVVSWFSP
- experimental-protocol: SPR, IgG captured, CD47 in flow; exp 2;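 also: rates derived from association and dissociation curves, KD estimated from them, C33G mutein used to avoid CD47 IgV homodimers for true monovalent affinity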
Provide the reading as a plain figure in s⁻¹.

{"binder": "108VH10.Mb / 108VL10.M1 (antibody, V domains shown, 4D5-framework series; constant regions not restated for this series; also called VH10.Mb VL10.M1) VH: EVQLVESGGGLVQPGGSLRLSCAASGYSFTHHWMHWVRQAPGKGLEWVAMIDPSDSETRLSQKFKDRFTISADTSKNTAYLQMNSLRAEDTAVYYCSRLGRYYFDYWGQGTLVTVSS VL: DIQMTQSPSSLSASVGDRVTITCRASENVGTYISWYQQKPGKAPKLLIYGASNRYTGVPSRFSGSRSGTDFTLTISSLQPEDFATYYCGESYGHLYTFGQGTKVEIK", "koff / s⁻¹": 0.0016}

Lab note: next binder to report on.
Lookup: Supply recorded koff for 108VH10 / 108VL10.M1 (antibody, V domains shown, 4D5-framework series; also called VH10 VL10.M1; straight-graft antibody) VH: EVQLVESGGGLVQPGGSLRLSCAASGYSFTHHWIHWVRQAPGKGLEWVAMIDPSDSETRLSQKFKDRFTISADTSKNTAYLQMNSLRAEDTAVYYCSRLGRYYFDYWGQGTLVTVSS VL: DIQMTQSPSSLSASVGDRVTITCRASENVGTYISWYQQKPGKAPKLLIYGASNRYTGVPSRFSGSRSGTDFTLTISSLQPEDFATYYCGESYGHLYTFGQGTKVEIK here.
Found: 0.0016
